# Target or system: Thromboxane-A synthase (Homo sapiens, UniProt P24557)
# Sequence (P24557 whole entry): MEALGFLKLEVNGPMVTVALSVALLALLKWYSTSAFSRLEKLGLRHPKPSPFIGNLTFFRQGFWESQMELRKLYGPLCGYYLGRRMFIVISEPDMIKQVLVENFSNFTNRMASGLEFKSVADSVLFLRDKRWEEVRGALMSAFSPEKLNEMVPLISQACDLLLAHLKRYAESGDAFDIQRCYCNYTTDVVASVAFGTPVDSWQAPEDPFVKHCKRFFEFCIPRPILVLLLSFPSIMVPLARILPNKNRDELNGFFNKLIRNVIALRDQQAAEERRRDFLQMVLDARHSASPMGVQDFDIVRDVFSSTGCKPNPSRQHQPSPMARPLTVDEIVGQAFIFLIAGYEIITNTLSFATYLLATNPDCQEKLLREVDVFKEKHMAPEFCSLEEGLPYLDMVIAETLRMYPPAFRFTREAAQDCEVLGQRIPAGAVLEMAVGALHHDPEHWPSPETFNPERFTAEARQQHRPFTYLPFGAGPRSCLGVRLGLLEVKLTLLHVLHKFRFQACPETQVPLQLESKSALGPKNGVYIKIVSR
# Procedure details: In vitro inhibition of thromboxane synthase (TXA2) in human platelet microsomes [reduced formation of TXB2 from prostaglandin H2(PGH2)]
# Type: functional, Microsome
# Condition summary: read-out: IC50
Readout: pIC50
The quantity pIC50 is defined as the negative base-10 logarithm of the molar concentration.

In: Lab note: need pIC50 for CCOC(=O)CCCC/C=C(/c1cccnc1)c1cccc(CN2CCc3c(sc4c3C(c3ccccc3Cl)=NC(C)c3nnc(C)n3-4)C2)c1 (stereo not drawn) on Thromboxane-A synthase (Homo sapiens, UniProt P24557), anyone have it?
Out: 7.17

In: Lab note: need pIC50 for CCOC(=O)CCCCO/N=C(\c1ccccc1)c1cccnc1 on Thromboxane-A synthase (Homo sapiens, UniProt P24557), anyone have it?
Out: 9.00

In: Lab note: need pIC50 for CCOC(=O)CCCC/C=C(\c1ccc(CN2CCc3c(sc4c3C(c3ccccc3Cl)=NC(C)c3nnc(C)n3-4)C2)cc1)c1cccnc1 (stereo not drawn) on Thromboxane-A synthase (Homo sapiens, UniProt P24557), anyone have it?
Out: 7.14

In: Lab note: need pIC50 for CCOC(=O)CCCCO/N=C(/c1cccnc1)c1cccc(CN2CCc3c(sc4c3C(c3ccccc3Cl)=NCc3nnc(C)n3-4)C2)c1 on Thromboxane-A synthase (Homo sapiens, UniProt P24557), anyone have it?
Out: 7.19

In: Lab note: need pIC50 for CCOC(=O)CCCCO/N=C(/c1cccnc1)c1cccc(CCCC(=O)N2CCc3c(sc4c3C(c3ccccc3Cl)=NC(C)c3nnc(C)n3-4)C2)c1 (stereo not drawn) on Thromboxane-A synthase (Homo sapiens, UniProt P24557), anyone have it?
Out: 7.39
